- testDetails: in vitro
- testConditions: human, liver microsomes
- Description: Metabolic stability in human liver microsomes assessed as hepatic clearance at 1 uM by HPLC analysis
reportedMetric: CLhep predicted at 1 µM

Form field CLhep predicted at 1 µM, entry O=C1C[C@@H](c2ccc(O)c(O)c2)Oc2cc(O)cc(O)c21 : < 6.1 mL/min/kg

* * *

- testDetails: Binding affinity to GFP-tagged FTO Arg96 mutant (unknown origin) assessed as dissociation constant by microscale thermophoresis analysis
reportedMetric: pKd
Answer as the number alone; pKd is minus log10 of concentration in mol/L.

Form field pKd, entry O=C1C[C@@H](c2ccc(O)c(O)c2)Oc2cc(O)cc(O)c21 : 3.59

* * *

- testDetails: Binding affinity to GFP-tagged FTO (Ser229) mutant (unknown origin) assessed as dissociation constant by microscale thermophoresis analysis
reportedMetric: Kd (µM)
Dear colleague, please return just the value in µM, with no unit written.

Form field Kd, entry O=C1C[C@@H](c2ccc(O)c(O)c2)Oc2cc(O)cc(O)c21 : 170
